# maps each entry to its MIC
Tested on: Streptococcus pneumoniae
Experiment: Antibacterial activity against Streptococcus pneumoniae 280-962 by broth microdilution method
Type: functional

SMILES_INPUT	VALUE_REPORTED
CC[C@H]1OC(=O)[C@H](C)C(=O)[C@H](C)[C@@H](O[C@@H]2O[C@H](C)C[C@H](N(C)C)[C@H]2O)[C@](C)(OC)C[C@@H](C)C(=O)[C@H](C)[C@@H]2[C@@H]1OC(=O)N2CCCCn1cnc(-c2ccc(F)nc2)c1	0.2 µg/mL

Please find the next compound below.
The recorded MIC for entry CC[C@H]1OC(=O)[C@H](C)C(=O)[C@H](C)[C@@H](O[C@@H]2O[C@H](C)C[C@H](N(C)C)[C@H]2O)[C@](C)(OC)C[C@@H](C)C(=O)[C@H](C)[C@@H]2[C@@H]1OC(=O)N2CCCCn1cnc(-c2ccccc2)c1 equals ≤ 0.05 µg/mL
